# test target: human IP6K3 (Homo sapiens, UniProt Q96PC2)
# Construct: human IP6K3 (1-410) gene; made in house; host or cells: BL21 (DE3) Escherichia coli
# Sequence (Q96PC2 whole entry): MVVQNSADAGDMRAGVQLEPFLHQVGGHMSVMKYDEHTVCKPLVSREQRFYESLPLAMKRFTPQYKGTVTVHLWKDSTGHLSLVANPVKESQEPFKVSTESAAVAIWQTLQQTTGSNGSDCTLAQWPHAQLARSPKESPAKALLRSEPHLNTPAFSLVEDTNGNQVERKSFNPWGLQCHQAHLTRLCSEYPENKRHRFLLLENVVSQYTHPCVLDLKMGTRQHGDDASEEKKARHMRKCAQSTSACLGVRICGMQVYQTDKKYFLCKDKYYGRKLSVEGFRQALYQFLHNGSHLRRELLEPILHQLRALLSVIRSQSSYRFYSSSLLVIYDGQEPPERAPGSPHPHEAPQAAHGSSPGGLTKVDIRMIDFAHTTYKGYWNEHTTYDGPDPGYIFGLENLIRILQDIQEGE
# procedure summary: IP6K enzyme inhibitory assay (ADP-Glo Kinase Assay), human IP6K3
# Type: biochemical
# conditions used: compound concentration 0.1 μM; read-out: ADP-Glo method inhibitory rate (%) human IP6K3
measured quantity: inhibition at 0.1 µM (%)

{"compound": "Cc1cc(O[C@H]2CC[C@@]3(CC2)C(=O)Nc2ccc(C(=O)O)cc23)ccc1F [Example 51]", "endpoint unit": "%", "inhibition at 0.1 µM": 96}
{"compound": "N#Cc1ccccc1O[C@H]1CC[C@@]2(CC1)C(=O)Nc1ccc(C(=O)O)cc12 [Example 44]", "endpoint unit": "%", "inhibition at 0.1 µM": 94}
{"compound": "Cc1cc(C)nc(O[C@H]2CC[C@@]3(CC2)C(=O)Nc2ccc(C(=O)O)cc23)n1 [Example 38]", "endpoint unit": "%", "inhibition at 0.1 µM": 86}
{"compound": "O=C(O)c1ccc2c(n1)[C@]1(CC[C@@H](Oc3ncc(C(F)(F)F)cc3Cl)CC1)C(=O)N2 [Example 105]", "endpoint unit": "%", "inhibition at 0.1 µM": 95}
{"compound": "O=C(O)c1ccc2c(n1)[C@]1(CC[C@@H](Oc3ncc(C4CC4)cc3C(F)(F)F)CC1)C(=O)N2 [Example 109]", "endpoint unit": "%", "inhibition at 0.1 µM": 95}
{"compound": "O=C(O)c1ccc2c(c1)[C@]1(CC[C@@H](Oc3ccccc3)CC1)C(=O)N2 [Example 113]", "endpoint unit": "%", "inhibition at 0.1 µM": 85}
{"compound": "O=C(O)c1ccc2c(n1)[C@]1(CC[C@H](Oc3ncc(Cl)cc3F)CC1)C(=O)N2 [Example 100]", "endpoint unit": "%", "inhibition at 0.1 µM": 97}
{"compound": "Cc1ccc(O[C@H]2CC[C@@]3(CC2)C(=O)Nc2ccc(C(=O)O)cc23)cc1 [Example 43]", "endpoint unit": "%", "inhibition at 0.1 µM": 100}
